Here the recorded pEC50 is given for each entry.
Target: cCaSR (Felis catus, UniProt C7FF08)
Sequence (C7FF08 1-1081): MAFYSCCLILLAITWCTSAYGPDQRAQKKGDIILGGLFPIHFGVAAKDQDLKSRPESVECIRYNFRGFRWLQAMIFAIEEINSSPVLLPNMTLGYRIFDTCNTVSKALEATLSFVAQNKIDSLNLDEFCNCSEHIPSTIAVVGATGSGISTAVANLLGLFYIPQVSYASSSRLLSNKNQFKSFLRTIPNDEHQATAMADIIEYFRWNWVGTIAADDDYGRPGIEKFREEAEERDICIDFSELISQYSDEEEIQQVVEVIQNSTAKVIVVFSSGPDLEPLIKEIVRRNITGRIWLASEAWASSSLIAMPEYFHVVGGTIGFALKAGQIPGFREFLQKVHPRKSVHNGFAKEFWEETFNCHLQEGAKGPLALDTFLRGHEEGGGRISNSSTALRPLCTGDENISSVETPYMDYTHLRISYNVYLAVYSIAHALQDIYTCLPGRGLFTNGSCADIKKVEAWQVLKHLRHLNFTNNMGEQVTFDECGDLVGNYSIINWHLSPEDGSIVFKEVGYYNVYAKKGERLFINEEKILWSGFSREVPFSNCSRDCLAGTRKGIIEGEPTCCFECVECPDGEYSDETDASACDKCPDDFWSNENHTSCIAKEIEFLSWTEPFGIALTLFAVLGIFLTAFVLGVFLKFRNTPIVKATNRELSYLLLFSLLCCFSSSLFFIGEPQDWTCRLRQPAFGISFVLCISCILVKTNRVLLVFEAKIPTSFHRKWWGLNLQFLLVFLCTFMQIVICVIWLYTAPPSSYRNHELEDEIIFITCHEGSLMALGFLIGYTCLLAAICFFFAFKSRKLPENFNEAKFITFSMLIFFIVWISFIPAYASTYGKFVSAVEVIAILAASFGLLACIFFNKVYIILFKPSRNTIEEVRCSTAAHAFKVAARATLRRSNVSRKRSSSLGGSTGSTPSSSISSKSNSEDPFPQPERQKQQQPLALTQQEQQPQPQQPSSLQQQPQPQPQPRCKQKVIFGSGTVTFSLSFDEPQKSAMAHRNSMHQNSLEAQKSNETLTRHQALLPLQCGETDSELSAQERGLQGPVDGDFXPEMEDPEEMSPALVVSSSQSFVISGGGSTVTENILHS
Experiment: cell-based
Conditions: cCaSR activity, agonist assay, stable inducible cCaSR line, at least three wells
pEC50: −log10 of the molar value. Counter-ions that a name gives are not always drawn.

Given N[C@@H](CCC(=O)N[C@@H](CSCc1c[nH]c2ccccc12)C(=O)NCC(=O)O)C(=O)O , respond with its pEC50.
2.00 to 3.00

Others:
Given N[C@@H](CCC(=O)N[C@@H](CSCCO)C(=O)NCC(=O)O)C(=O)O [S-(2-Hydroxyethyl)glutathione] , respond with its pEC50.
2.00 to 3.00

Given NC(=O)[C@@H](N)CCC(=O)O , respond with its pEC50.
< 2.00

Given NC[C@H]1O[C@H](O[C@H]2[C@H](O[C@@H]3O[C@H](CO)[C@@H](O)[C@H]3O)[C@@H](O)[C@H](N)C[C@@H]2N)[C@H](N)[C@@H](O)[C@@H]1O [Ribostamycin sulfate salt, reference compound] , respond with its pEC50.
< 2.00

Hello, the source for this data is paper PMC8131363, in case you need it.
